Test system: K-562 leukemia
Assay: NCI tumour cell line growth inhibition, 48 h
TGI vs 30 µM: at or above is met, below is not met.

O=C1Nc2ccccc2/C1=C/c1cn(CC(O)Cn2cc(/C=C3\C(=O)Nc4ccccc43)c3ccccc32)c2ccccc12 (centres undefined); not met
CC/C(Cc1ccccc1)=C(/c1ccc(O)cc1)c1ccc(OCCN2CCCC2)cc1; not met
CCOc1ccc(N=Cc2ccnc3ccccc23)cc1; met
CCOc1cc(-c2nc3cc(F)ccc3s2)ccc1O; not met
O=c1[nH]c(=O)n([C@@H]2O[C@H](CO)[C@@H](O)[C@@H]2F)cc1I; met

Prompt line: Tell me whether TGI is at least 30 µM here: COC(=O)CNC(=O)CCC(C)[C@H]1CCC2C3C(C[C@H](OC(C)=O)[C@@]21C)[C@@]1(C)CCC2(C[C@H]1C[C@H]3OC(C)=O)OOC1(CCCCC1)OO2 (some centres undefined)
Response line: not met

Prompt line: API: above_or_equal(metric=TGI, cutoff=30 µM) for item CN(C)c1ccc(/C=C(\NC(=O)c2ccccc2)C(=O)NC(Cc2c[nH]c3ccccc23)C(=O)O)cc1 (centres undefined)
Response line: met

Prompt line: Could you please find out whether `C[n+]1cn(-c2nc3ccccc3nc2[N-]S(=O)(=O)c2ccccc2)c2ccccc21` has TGI that meets 30 µM or exceeds it?
Response line: met
